- Test system: cyclooxygenase
- method: inhibition of synthesis of cyclooxygenase products TxB2 and PGE2 (rat polymorphonuclear leukocytes)
- Assay type: cell-based
- stated.conditions: 10 μM; rat PMN; negative = potentiation of PGE2 synthesis
% Inhibition of CO (as PGE2) values by entry
quantity.measured: % Inhibition of CO (as PGE2) (%)

CC(C(=O)O)c1ccc2c(Br)c(OCc3ccc4ccccc4n3)ccc2c1 (stereo not drawn) [Example 19] : -21
C[C@H](C=O)c1ccc2cc(OCc3ccc4ccccc4n3)ccc2c1 [Example 27] : -62
Cc1ccc(S(=O)(=O)NC(=O)C(C)c2ccc3cc(OCc4ccc5ccccc5n4)ccc3c2)cc1 (stereo not drawn) [Example 25] : -103
